Reference source: patent US20260242391A1

Experiment: in vitro
Conditions: human
pIC50: −log10 of the molar value.
Listing of entries alongside the reported pIC50.
Property Name: pIC50

{"Compound": "C[C@H]1[C@@H](OCC(C(=O)O)c2ccccc2)O[C@@H]2O[C@@]3(C)CC[C@H]4[C@H](C)CC[C@@H]1[C@@]24OO3 (stereo partly drawn)", "Property Name": "pIC50", "Result": "< 4.70"}
{"Compound": "C[C@H]1[C@H](N2CC[C@@H](C(=O)O)C2)O[C@@H]2O[C@@]3(C)CC[C@H]4[C@H](C)CC[C@@H]1[C@@]24OO3", "Property Name": "pIC50", "Result": "< 4.70"}
{"Compound": "COc1cc(CO[C@@H]2O[C@@H]3O[C@@]4(C)CC[C@H]5[C@H](C)CC[C@@H]([C@H]2C)[C@@]35OO4)ccc1C(=O)O", "Property Name": "pIC50", "Result": "< 4.70"}

----------
Entries and their EC50 values follow.
Tested on: HL-60
Test: HL-60 differentiation potency
Type: cell-based
Conditions: Homo sapiens

{"Molecule": "CC(C)C(C(=O)O)c1ccc(O[C@H]2O[C@@H]3O[C@@]4(C)CC[C@H]5[C@H](C)CC[C@@H]([C@H]2C)[C@@]35OO4)c(F)c1 (stereo partly shown)", "Unit Spec": "nM", "EC50": 10.3}
{"Molecule": "C[C@H]1[C@@H](OCc2ccc(C(=O)N3CCC(C(=O)O)CC3)cc2)O[C@@H]2O[C@@]3(C)CC[C@H]4[C@H](C)CC[C@@H]1[C@@]24OO3", "Unit Spec": "nM", "EC50": 1780}
{"Molecule": "C[C@H]1[C@@H](Oc2ccc(O[C@H]3CC[C@@H](C(=O)O)CC3)cc2)O[C@@H]2O[C@@]3(C)CC[C@H]4[C@H](C)CC[C@@H]1[C@@]24OO3", "Unit Spec": "nM", "EC50": 74.2}
{"Molecule": "C[C@H]1[C@@H](OC/C=C/[C@]2(F)CC[C@H](C(=O)O)CC2)O[C@@H]2O[C@@]3(C)CC[C@H]4[C@H](C)CC[C@@H]1[C@@]24OO3", "Unit Spec": "nM", "EC50": 92.4}

----------
EC50 values, listed per item
System: HL-60
Assay: HL-60 differentiation potency
Format: cell-based
Conditions: Homo sapiens

{"Compound": "C[C@H]1[C@@H](Oc2ccc(CC(=O)O)cc2Cl)O[C@@H]2O[C@@]3(C)CC[C@H]4[C@H](C)CC[C@@H]1[C@@]24OO3", "Unit Spec": "nM", "EC50": 94.8}
{"Compound": "C[C@H]1[C@@H](OC(C)(C)[C@H]2CC[C@@H](C(=O)O)CC2)O[C@@H]2O[C@@]3(C)CC[C@H]4[C@H](C)CC[C@@H]1[C@@]24OO3", "Unit Spec": "nM", "EC50": 159}
{"Compound": "CC(O[C@H]1O[C@@H]2O[C@@]3(C)CC[C@H]4[C@H](C)CC[C@@H]([C@H]1C)[C@@]24OO3)c1ccc(C(=O)O)cc1Cl (stereo partly drawn)", "Unit Spec": "nM", "EC50": 65.8}
{"Compound": "C[C@H]1[C@@H](OCc2ccnc(C(=O)O)c2)O[C@@H]2O[C@@]3(C)CC[C@H]4[C@H](C)CC[C@@H]1[C@@]24OO3", "Unit Spec": "nM", "EC50": 93.1}
{"Compound": "C[C@H]1[C@@H](OC[C@H]2CC[C@@H](C(=O)NC(C)(C)C)CC2)O[C@@H]2O[C@@]3(C)CC[C@H]4[C@H](C)CC[C@@H]1[C@@]24OO3", "Unit Spec": "nM", "EC50": 97.3}
{"Compound": "C[C@H]1[C@@H](OCC2CC3C(C2)C3C(=O)O)O[C@@H]2O[C@@]3(C)CC[C@H]4[C@H](C)CC[C@@H]1[C@@]24OO3 (stereo partly drawn)", "Unit Spec": "nM", "EC50": 140}
